B1: Caulobacter ParB omega fusion; a variant is named by its letters at X, in order, B8GW30 (parent)
chain: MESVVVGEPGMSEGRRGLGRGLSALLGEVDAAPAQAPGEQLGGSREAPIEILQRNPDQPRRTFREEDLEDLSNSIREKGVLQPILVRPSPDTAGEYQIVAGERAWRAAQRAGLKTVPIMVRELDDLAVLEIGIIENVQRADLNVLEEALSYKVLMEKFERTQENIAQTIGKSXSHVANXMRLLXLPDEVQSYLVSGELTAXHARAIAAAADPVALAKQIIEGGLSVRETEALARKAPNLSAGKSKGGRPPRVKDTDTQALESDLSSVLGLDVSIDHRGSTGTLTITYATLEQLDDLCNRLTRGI

Variants of: B1
Assay: one-hybrid fitness for binding NBS DNA (the Noc-binding site; scaled: cognate 1, non-cognate 0); higher = stronger binding
Details: with NBS DNA site
Whole data set: some 81,000 sequences, median “one-hybrid fitness for binding NBS DNA” near -0.1, cut for the highest 2% near 0.36. What follows is part of a selection rich in the highest values, with near analogues and random picks from the rest.
measurement-name: one-hybrid fitness for binding NBS DNA

INSERT INTO measurements (mutation_code, measurement_name, comparison_sign, measured_result) VALUES
  ('LPCE', 'one-hybrid fitness for binding NBS DNA', '≤', 0.2),
  ('MGAT', 'one-hybrid fitness for binding NBS DNA', '≤', 0.2),
  ('QSSN', 'one-hybrid fitness for binding NBS DNA', '≤', 0.2),
  ('HLQN', 'one-hybrid fitness for binding NBS DNA', '≤', 0.2),
  ('QQYQ', 'one-hybrid fitness for binding NBS DNA', '≤', 0.2),
  ('QSST', 'one-hybrid fitness for binding NBS DNA', '=', 0.424),
  ('KVTC', 'one-hybrid fitness for binding NBS DNA', '≤', 0.2),
  ('LRDK', 'one-hybrid fitness for binding NBS DNA', '≤', 0.2),
  ('QCAC', 'one-hybrid fitness for binding NBS DNA', '≤', 0.2),
  ('VHNR', 'one-hybrid fitness for binding NBS DNA', '≤', 0.2),
  ('QRFM', 'one-hybrid fitness for binding NBS DNA', '=', 0.22),
  ('QLSH', 'one-hybrid fitness for binding NBS DNA', '≤', 0.2),
  ('QHST', 'one-hybrid fitness for binding NBS DNA', '=', 0.446),
  ('QQKQ', 'one-hybrid fitness for binding NBS DNA', '=', 0.493),
  ('QASD', 'one-hybrid fitness for binding NBS DNA', '≤', 0.2),
  ('QQLQ', 'one-hybrid fitness for binding NBS DNA', '≤', 0.2),
  ('QRFP', 'one-hybrid fitness for binding NBS DNA', '=', 0.201),
  ('QQVQ', 'one-hybrid fitness for binding NBS DNA', '=', 0.395),
  ('QAST', 'one-hybrid fitness for binding NBS DNA', '=', 0.395),
  ('QQRQ', 'one-hybrid fitness for binding NBS DNA', '=', 0.421),
  ('QRAQ', 'one-hybrid fitness for binding NBS DNA', '=', 0.412),
  ('QGST', 'one-hybrid fitness for binding NBS DNA', '≤', 0.2);

These data points were gathered from a collection of fitness landscapes (doi:10.1016/j.celrep.2020.107928).
